The reader will find reported phosphorylation enrichment values listed item by item below.
system_tested: Fes (UniProt P07332)
Sequence (P07332 whole entry, looked up): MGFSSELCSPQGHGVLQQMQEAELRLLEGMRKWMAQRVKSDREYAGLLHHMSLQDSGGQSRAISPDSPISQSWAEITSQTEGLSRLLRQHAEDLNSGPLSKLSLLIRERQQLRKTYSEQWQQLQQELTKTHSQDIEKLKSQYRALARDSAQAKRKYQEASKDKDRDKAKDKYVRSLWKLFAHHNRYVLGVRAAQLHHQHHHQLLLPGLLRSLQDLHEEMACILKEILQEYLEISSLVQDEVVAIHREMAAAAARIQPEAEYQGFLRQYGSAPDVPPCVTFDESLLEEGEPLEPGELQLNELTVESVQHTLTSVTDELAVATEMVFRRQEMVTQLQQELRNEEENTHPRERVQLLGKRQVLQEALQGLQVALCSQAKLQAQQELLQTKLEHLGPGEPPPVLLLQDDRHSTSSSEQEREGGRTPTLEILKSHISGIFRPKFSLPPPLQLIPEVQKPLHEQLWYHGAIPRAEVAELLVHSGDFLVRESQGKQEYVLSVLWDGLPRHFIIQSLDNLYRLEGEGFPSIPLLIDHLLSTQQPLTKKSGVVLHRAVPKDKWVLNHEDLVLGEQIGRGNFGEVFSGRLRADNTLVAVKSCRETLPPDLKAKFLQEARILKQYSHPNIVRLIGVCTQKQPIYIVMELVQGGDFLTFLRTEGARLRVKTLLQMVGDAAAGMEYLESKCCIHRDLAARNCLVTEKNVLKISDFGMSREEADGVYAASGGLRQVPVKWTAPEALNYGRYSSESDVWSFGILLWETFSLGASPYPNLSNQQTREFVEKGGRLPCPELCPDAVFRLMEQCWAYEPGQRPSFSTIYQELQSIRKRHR
assay_explanation: phosphorylation enrichment, bacterial display (enrichment ratio); higher = better substrate or ligand; peptides without Tyr show the background;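 further: 11-residue human phosphosite peptides and single-mutation variants displayed on the E. coli surface, counted by deep sequencing, each peptide's frequency after selection divided by its frequency in the unselected input library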;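 further: frequency after pTyr selection over input frequency; kinase dosed for 20-30% of maximal phosphorylation in three min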
Note: the reply should be a number with no unit written.

Guide cases for phosphorylation enrichment, answers given:
monomer_sequence: NLGQQYNSPQE [UMPS_Y432]
experimental_value: 0.974
--
monomer_sequence: INNIDYFKKTT [FGFR2_Y656_YF]
experimental_value: 0.648
--
monomer_sequence: IVAREYFSKAD [CAMK2B_Y107_E110K_YF]
experimental_value: 0.693

Ask: Given ELQDDYEDTME [SLC4A1_Y8_M11T] , state its recorded phosphorylation enrichment.
Result: 1.39

Ask: Fill in: phosphorylation enrichment of VVKTVYSLQPS [KNSTRN_Y87_P92S] is ___
Result: 0.848

Ask: What measured phosphorylation enrichment goes with TPGPNYCPGFN [USH2A_Y463_R464C_YF] ?
Result: 0.643
